test system: Raji: human Burkitt's lymphoma cells, B7H3-negative; test: CTG cytotoxicity assay of anti-B7H3 ADCs, Raji; type: cell-based; conditions: 72 h incubation
experimental_endpoint: IC50 (nM)
Give the quantity in nM, number only.

Would you kindly share the measured IC50 for `CC(C)(C)[C@H](c1cc(-c2cc(F)ccc2F)cn1Cc1ccccc1)N(CCCN)C(=O)CO` ?
0.03
